- Protocol text: compound binding in COS7 lysate, probe aLAP1, primary screen, cell lysate, small-molecule microarray (AID 1124);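 also: lysate comes from COS7 cells expressing LAP1 and is applied at 0.3 µg/mL; score merges spot fluorescence near 667 nm with signal-to-noise over triplicate slides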
- Details: probe aLAP1, fluorescence, higher = more signal
Quantity measured: composite z-score
// keep it numeric: no unit symbol after the value

Example entries and their recorded answers appear below.
>>> observed("COC(=O)CC=C[C@@H](C)[C@@H](C=NOC[C@H]1O[C@H](c2ccccc2)C=C[C@@H]1Oc1ccc(OC)cc1)OC")
-0.0842
>>> observed("CC(C)=CCCC(C)=CCON=C1C[C@@H](O)[C@@H](O)[C@@H]2[C@@H]3C(=O)N(C4CCCCC4)C(=O)[C@@H]3CC[C@@H]12")
0.0694
>>> observed("O=c1n(Cc2cc3c(cc2Cl)OCO3)c(=O)n2n1CC[C@@H]1C(=NOCc3ccccc3)[C@H]3O[C@H]3[C@@H](O)[C@@H]12")
0.708
>>> observed("CO[C@@H]1COC(=O)[C@@H]2CCCN2C(=O)[C@@H](C)COC(=O)CC=C[C@H]1C")
0.0496
>>> observed("COc1ccc(O[C@H]2C=C[C@@H](c3ccccc3)O[C@@H]2CON=CC[C@@H]2C=C[C@H](OC(C)=O)[C@@H](COC(C)=O)O2)cc1")
0.221
>>> observed("CCOC(=O)[C@H](CC(C)C)NC(=O)CCC1CC(OC(=O)NCc2cccc3ccccc23)CC2(CCCC(COC(=O)NCCC(C)C)O2)O1 (stereo partly drawn)")
-0.104
>>> observed("CO[C@H]1COC(=O)[C@H](C)NC(=O)[C@@H](C)COC(=O)[C@H]2CCCN2C(=O)CC=C[C@H]1C")
-0.0354
>>> observed("CO[C@@H]1COC(=O)[C@@H](C)NC(=O)CC=C[C@@H](C)[C@H](NS(=O)(=O)c2ccc(C)cc2)COC(=O)[C@H](C)NC(=O)CC=C[C@H]1C")
-0.192
>>> observed("COC(=O)[C@H](C)NC(=O)CCC1CC(OC(=O)NCc2ccc3c(c2)OCO3)CC2(CCCC(COC(=O)NCC(c3ccccc3)c3ccccc3)O2)O1 (stereo partly drawn)")
0.165
>>> observed("CCOC(=O)[C@H](Cc1ccccc1)NC(=O)CCC1CC(OC(=O)NCc2cccc3ccccc23)CC2(CCCC(COC(=O)NCCC(C)C)O2)O1 (stereo partly drawn)")
0.23

Alright, here's another compound for you.
Query string: # composite z-score lookup, item CO[C@@H]1COC(=O)CC=C[C@@H](C)[C@H](OC)COC(=O)[C@@H](C)COC(=O)CC=C[C@H]1C
Result string: -0.0936

Just for reference, PubChem BioAssay is where these values come from.
